In this section, each of the molecules is paired with its reported growth.
# System: A498 renal
# protocolNotes: NCI-60 one-dose screen, 48 h (100 = growth as untreated, 0 = no growth, -100 = all killed)
# conditionNotes: 10 µM
This is part of a sample that, as a whole, favours compounds with a hit. Of some 83,000 tested, about 20% had one in any assay.
All answers are understood in %, so give the number only.

molecule	growth, %
[Cl][Hg][c]1cc(Br)cc(Br)c1	75.4
Fc1ccc(C2=CCNCC2)cc1	87.8
CCN(CC)c1ccc2c(c1)OC(N)=C(C#N)C2c1cc(OC)c2c(c1)OCO2 (stereo not given)	-4
ClCCN(CCCl)c1ccc(/C=N\N=C\c2ccc(N(CCCl)CCCl)cc2)cc1	75

Find the recorded growth belonging to CC12CCC3C(C=CC4=C(N)C(=O)CCC43C)C1CCC2=O (stereo not given) and report it. 99.2

Quick one: Clc1cccc(Cl)c1Cl 107

Quick one: CC1=C(CN)C2=C(C)C3(CC3)[C@@](C)(O)C(=O)C2=C1 68.6

----------
# System: SNB-75 CNS
# protocolNotes: NCI-60 one-dose screen, 48 h
# conditionNotes: 10 µM unless noted
Compounds without any hit were thinned out: in the full panel of roughly 83,000, 20% have a hit. Calls of active or inactive are those of the source. How the source made its calls: active means growth percent below 10; inactive means the rest.
Give your call using only these classes: yes (active), no (inactive)

Please review the following examples before continuing.
compound	classification
COc1ccc(/C=C\c2cc(OC)c(OC)c(OC)c2)cc1NC(=O)/C=C/c1cc(OC)c(OC)c(OC)c1	no
C=COC(=O)CCN1CC1	no
CC1=C(CN)C2=C(C)C3(CC3)[C@@](C)(O)C(=O)C2=C1	no
O=C([O][Hg][c]1ccccc1)c1ccccc1	yes
COC(=O)C12CC(NC(=O)c3csc([C@@H](C[C@H](C(C)C)N(C)C(=O)[C@@H](NC(=O)[C@H]4CCCCN4C)C4CC4)OC(C)=O)n3)(C1)C2	no

Record request — test call for Cc1cc(C)c(CBr)c(C)c1 no

----------
# Tested on: UACC-257 melanoma
# protocolNotes: NCI-60 one-dose screen, 48 h (100 = growth as untreated, 0 = no growth, -100 = all killed)
# conditionNotes: 10 µM unless noted
The panel holds about 83,000 compounds, 20% with a hit somewhere; the sample as a whole holds those more often.
In this section, each of the molecules is paired with its reported growth.
All answers are understood in %, so give the number only.

Worked cases, growth given:
molecule	recordedMetric	measured
COc1cc(/C=C/[N+](=O)[O-])c([N+](=O)[O-])cc1OC	growth	65.7
Cc1ccc(C(=O)NCCCOc2ccc(N)cc2Cl)cc1S(=O)(=O)F	growth	87.1
CC(=O)O[C@H](C[C@H](C(C)C)N(C)C(=O)[C@@H](NC(=O)[C@H]1CCCCN1C)C(C)(C)C)c1nc(C(=O)N[C@@H](Cc2ccccc2)C[C@H](C)C(=O)O)cs1	growth	47
CO[C@H](C(=O)O)[C@@H]1Cc2cc3cc(OC4CC(OC5CC(O)C(O)C(C)O5)C(O)C(C)O4)c(C)c(O)c3c(O)c2C(=O)[C@H]1OC1CC(OC2CC(OC3CC(C)(O)C(O)C(C)O3)C(O)C(C)O2)C(O)C(C)O1 (some centres undefined)	growth	7.77
Clc1cccc(Cl)c1Cl	growth	86.6
CCOC(=O)C(Cc1ccc(N(CCCl)CCCl)cc1)NC(=O)C(CC(C)C)NC(C)=O (centres undefined)	growth	24.2
COC(=O)[C@@H](C)C[C@H](Cc1ccccc1)NC(=O)c1csc([C@@H](C[C@H](C(C)C)N(C)C(=O)[C@@H](NC(=O)[C@H]2CCCCN2C)C(C)C)OC(C)=O)n1	growth	41.7
Clc1cccc(N2COOC3(OOC2)C2CC4CC(C2)CC3C4)c1	growth	98

Find the recorded growth belonging to COc1cc(NCCCN=C(N)N)c2ncccc2c1 and report it. 90.3

Quick one: O=C(Nc1ccc(O)cc1)C(Cl)(Cl)Cl 90.2

Quick one: CCCCCCCCC(CO)NCCc1ccccc1 (centres undefined) 85.7

Quick one: Oc1c(O)c(Cl)c(Cl)c(Cl)c1Cl -9.22

Quick one: O=C1C(=Cc2cn(Cc3ccccc3)c3ccccc23)C(=O)N(Cc2ccccc2)C(=O)N1Cc1ccccc1 52.9

Quick one: O=C(N/N=C\c1ccc(N(CCCl)CCCl)cc1)c1cccc([N+](=O)[O-])c1 92.7

Quick one: O=C1C(Cl)=C(N2CCOCC2)C(=O)c2ccccc21 54.4

Quick one: CC(=O)Nc1ccc(NC(=O)c2ccc([As](O)O)cc2)cc1 104

Quick one: C=C1C[C@](OC)([C@H](O)C(=O)N[C@@H](OC)[C@@H]2C[C@@H](O)C(C)(C)[C@@H](C[C@@H](COC)OC)O2)O[C@H](C)[C@@H]1C -53.4

Quick one: CC[C@H](C)[C@H](NC(=O)C12CC(NC(C)=O)(C1)C2)C(=O)N(C)[C@H](C[C@@H](OC(C)=O)c1nc(C(=O)N[C@@H](Cc2ccccc2)C[C@H](C)C(=O)OC)cs1)C(C)C 49.6

Quick one: COC1CC2c3ccccc3C1C(C)=[N+]2C (centres undefined) 95.6

----------
# System: 786-0 renal
# protocolNotes: NCI-60 one-dose screen, 48 h (100 = growth as untreated, 0 = no growth, -100 = all killed)
# conditionNotes: 10 µM unless noted
# Experimental: Cells are grown in 96 well plates and exposed to the test compound for 48 hours. Compounds are tested at a single concentration, which is 10^-5 M for most compounds. The reported endpoint is percent growth (GI% or GIPRCNT), where numbers from 0 - 100% represent growth inhibition, and numbers from -100% - 0 represent cell death. For example, a value of 40 represents 60% growth inhibition. A value of 0 means no net growth occurred over the course of the experiment. […]
This is part of a sample that, as a whole, favours compounds with a hit. Of some 83,000 tested, about 20% had one in any assay. Calls of active or inactive are those of the source. The calls were made as follows: active = growth percent below 10; inactive = the rest.
recordedMetric: growth

Find the recorded growth belonging to CSc1nc(Cl)cc(N2CC2)n1 and report it. 104% (inactive)

Quick one: CC[C@H](C)[C@H](NC(=O)[C@H]1CCCCN1C)C(=O)N(C)[C@H](CC(=O)c1nc(C(=O)N[C@@H](Cc2ccccc2)C[C@H](C)C(=O)O)cs1)C(C)C 89.7% (inactive)

Quick one: CC1(C)N=C(N)N=C(N)N1c1ccc(CCC(=O)Nc2ccc(S(=O)(=O)F)cc2)c(Cl)c1 20.6% (inactive)

Quick one: OCCCCCNC1CCCCC1 99.5% (inactive)

Quick one: COc1ccc(O)c(CNC(=O)CN2CCCC2=O)c1 105% (inactive)

Quick one: Cc1cc(C)c(CBr)c(C)c1 99.2% (inactive)

Quick one: Nc1ccc(-c2nc3cc(F)ccc3[se]2)cc1F 101% (inactive)

Quick one: CC(C)=CC1C(C(=O)OCc2cccc(Oc3ccccc3)c2)C1(C)C (stereo unspecified) 81.3% (inactive)

Quick one: Cc1cc(NC(=O)NCc2ccc(N3C(N)=NC(N)=NC3(C)C)cc2)ccc1S(=O)(=O)F 26.2% (inactive)

Quick one: COC(=O)CCC1=C(C)c2cc3[n-]c(cc4nc(cc5[n-]c(cc1n2)c(CCC(=O)OC)c5C)C=C4C)cc3C.[Cd+2] 75.2% (inactive)

Quick one: CC[CH2][Sn]([Cl])([Cl])[CH2]CC 73.8% (inactive)

Quick one: Nc1ccc2c(c1)Cc1cc(Br)ccc1-2 108% (inactive)

----------
# Tested on: SNB-75 CNS
# protocolNotes: NCI-60 one-dose screen, 48 h
# conditionNotes: 10 µM unless noted
About 83,000 compounds went through this panel and 20% of them were active in at least one assay; those are over-represented in the sample as a whole. Active and inactive are the calls of the source. The calls were made as follows: active = growth percent below 10; inactive = the rest.
Give your call using only these classes: active, inactive

Record request — test call for CCCCCCCCCCCCNC(c1ccccc1)C(O)c1ccccc1 (stereo not drawn) inactive

Quick one: COc1cc(/C=C/[N+](=O)[O-])cc(OC)c1 inactive

Quick one: CCCC[C@H](NC(=O)[C@H]1CCCCN1C)C(=O)N(C)[C@H](C[C@@H](OC(C)=O)c1nc(C(=O)N[C@@H](Cc2ccccc2)C[C@H](C)C(=O)OCC)cs1)C(C)C inactive

Quick one: O=[N+]([O-])c1cc([N+](=O)[O-])c(Cl)cc1Cl active

Quick one: CCC(=O)Nc1ccc(Cl)c(Cl)c1 inactive

Quick one: COC(=O)[C@H](Cc1ccccc1)NC(=O)c1csc([C@@H](C[C@H](C(C)C)N(C)C(=O)[C@@H](NC(=O)[C@H]2CCCCN2C)C2CC2)OC(C)=O)n1 inactive

Quick one: COc1ccc(S(=O)(=O)Nc2c(/C=C\c3cc(OC)c(OC)c(OC)c3)ccc(OC)c2O)cc1OC inactive

Quick one: CCOC(=O)[C@@H](C)C[C@H](Cc1ccccc1)NC(=O)c1csc([C@@H](C[C@H](C(C)C)N(C)C(=O)[C@H](CC)NC(=O)[C@H]2CCCCN2C)OC(C)=O)n1 inactive
